Reported composite z-score values are given for each entry in this list.
Assay comment: small-molecule binders of probe aNOTCH2, primary screen, biochemical, small-molecule microarray, 635/667 nm fluorescence (AID 1121);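 note: score merges feature fluorescence read at 667 nm with its signal to noise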
Condition: higher = more signal
Recorded metric: composite z-score

[[record]]
compound = "CCOC(=O)C[C@H]1[C@H](OC(=O)c2cc3ccccc3oc2=O)[C@@H](NC(=O)c2ccc3ccccc3c2)c2cc(OCCCO)ccc2N1C(=O)c1ccc2ccccc2n1"
recorded_metric = "composite z-score"
recorded_result = -0.122

[[record]]
compound = "COc1ccc([Si](C)(C)[C@H]2[C@H](CCO)O[C@@]3(C(=O)N(Cc4ccccc4)c4ccc(N5C(=O)c6cccc7cccc5c67)cc43)[C@@H]2C)cc1"
recorded_metric = "composite z-score"
recorded_result = -0.155

[[record]]
compound = "CCCN1C(=O)[C@@]2(CCS(=O)(=O)c3ccccc3)N=C(c3ccc(OCCCO)cc3)O[C@H]2c2ccccc21"
recorded_metric = "composite z-score"
recorded_result = -0.0956

[[record]]
compound = "COc1cc([C@@H]2N[C@H](C(=O)O)Cc3c2[nH]c2ccccc32)cc(OC)c1OC"
recorded_metric = "composite z-score"
recorded_result = -0.089

[[record]]
compound = "CC(C)[Si](OCCCNS(=O)(=O)c1ccc(Br)cc1)(C(C)C)C(C)C"
recorded_metric = "composite z-score"
recorded_result = -0.0877

[[record]]
compound = "CC(C)[C@H]1NC(=O)[C@@]23C(=O)N[C@@H](Cc4ccccc4)C2[C@H](C)[C@@]2(C)O[C@H]2C3/C=C/C/C=C\\CNC(=O)[C@H](C)NC1=O (some centres undefined)"
recorded_metric = "composite z-score"
recorded_result = -0.218

[[record]]
compound = "C=CCN1C(=O)[C@]2(O[C@H](CCn3cc(CCO)nn3)[C@@H]([Si](C)(C)c3ccc(OC)cc3)[C@@H]2C)c2cc(NC(=O)c3ccc(OC)cc3)ccc21"
recorded_metric = "composite z-score"
recorded_result = -0.044

[[record]]
compound = "C=CC[C@@]1(C(=O)N2CCOCC2)N=C(c2ccc(OCCCO)cc2)O[C@@H]1c1ccccc1"
recorded_metric = "composite z-score"
recorded_result = -0.327

[[record]]
compound = "Cc1ccc(N2C(=O)c3ccccc3[C@](C)(C(=O)NCC(C)C)[C@@H]2c2ccc(CO)cc2)nc1"
recorded_metric = "composite z-score"
recorded_result = -0.126

[[record]]
compound = "CCCCCCc1nc(-c2cc(C)c(OC)c(C)c2)cc2c1[Si](C(C)C)(C(C)C)O[C@H]2c1ccccc1"
recorded_metric = "composite z-score"
recorded_result = -0.0191

[[record]]
compound = "C=C(CCCC)/C(=C/C[C@@H](OC(=O)c1ccncc1)c1ccc(CO)o1)c1cnc2ccccc2c1"
recorded_metric = "composite z-score"
recorded_result = 0.0626

[[record]]
compound = "O=C/C=C/c1ccccc1Cl"
recorded_metric = "composite z-score"
recorded_result = -0.0866

[[record]]
compound = "CO[C@H]1COC(=O)[C@H](C)NC(=O)CC=C[C@@H](C)[C@H](NS(=O)(=O)c2ccc(C)cc2)COC(=O)CC=C[C@@H]1C"
recorded_metric = "composite z-score"
recorded_result = -0.146

[[record]]
compound = "O=C1O[C@H](c2ccccc2)[C@H](c2ccccc2)N2[C@H]1[C@@H](C(=O)NC[C@H](O)c1ccccc1)[C@]1(C(=O)Nc3ccc(C#CC4=CCCCC4)cc31)[C@H]2c1ccc(OCCO)cc1"
recorded_metric = "composite z-score"
recorded_result = -0.0741

[[record]]
compound = "CO[C@@H]1COC(=O)[C@H](COCc2ccccc2)NC(=O)CC=C[C@@H](C)[C@H](OC)COC(=O)[C@H](COCc2ccccc2)NC(=O)CC=C[C@H]1C"
recorded_metric = "composite z-score"
recorded_result = -0.112

[[record]]
compound = "Cc1cc(C)c(C(O)C2C=CC3C(=O)N(C)C(=O)C3N2N2CCCCC2)c(C)c1 (centres undefined)"
recorded_metric = "composite z-score"
recorded_result = 0.192

[[record]]
compound = "CC(c1ccccc1)C(O)C1C=CC2C(=O)N(C)C(=O)C2N1N(c1ccccc1)c1ccccc1 (centres undefined)"
recorded_metric = "composite z-score"
recorded_result = 0.0605

[[record]]
compound = "Cc1ccc(N2C(=O)c3ccccc3[C@@H](C(=O)NCc3ccccc3)[C@@H]2c2ccc(CO)cc2)nc1"
recorded_metric = "composite z-score"
recorded_result = -0.0272

[[record]]
compound = "C=C(C)[C@@H]1CC=C(C(O)C2C=CC3C(=O)NC(=O)C3N2Nc2ccccn2)CC1 (some centres undefined)"
recorded_metric = "composite z-score"
recorded_result = 0.0179

[[record]]
compound = "Cc1ccccc1C(O)C1C=CC2C(=O)N(c3ccccc3)C(=O)C2N1Nc1ccc(C#N)cc1 (centres undefined)"
recorded_metric = "composite z-score"
recorded_result = 0.417

[[record]]
compound = "C[C@]1(C(=O)NCCN2CCOCC2)c2ccccc2C(=O)N(Cc2ccccc2)[C@H]1c1ccc(CO)cc1"
recorded_metric = "composite z-score"
recorded_result = -0.154

[[record]]
compound = "CO[C@H]1COC(=O)[C@H](C)NC(=O)CC=C[C@@H](C)[C@H](NS(=O)(=O)c2ccc(C)cc2)COC(=O)[C@@H](OCc2ccccc2)C=C[C@@H]1C"
recorded_metric = "composite z-score"
recorded_result = -0.154

[[record]]
compound = "C=CCN1C(=O)[C@@]2(Cc3ccccc3)N=C(c3ccc(OCCCO)cc3)O[C@H]2c2ccccc21"
recorded_metric = "composite z-score"
recorded_result = 0.2

[[record]]
compound = "C=CCC(OC(C)=O)[C@@H]1[C@@H](N(Cc2ccc(-c3ccccc3)cc2)C(=O)c2ccc(-c3ccccc3)cc2)c2cc(OCCCO)ccc2N1C(=O)Cc1ccc(OC)cc1 (some centres undefined)"
recorded_metric = "composite z-score"
recorded_result = -0.183


---

Reported z-score values are given for each entry in this list.
Experimental target: Homeobox protein Hox-A13 (Mus musculus) (UniProt Q62424)
Sequence (Q62424 whole entry, looked up): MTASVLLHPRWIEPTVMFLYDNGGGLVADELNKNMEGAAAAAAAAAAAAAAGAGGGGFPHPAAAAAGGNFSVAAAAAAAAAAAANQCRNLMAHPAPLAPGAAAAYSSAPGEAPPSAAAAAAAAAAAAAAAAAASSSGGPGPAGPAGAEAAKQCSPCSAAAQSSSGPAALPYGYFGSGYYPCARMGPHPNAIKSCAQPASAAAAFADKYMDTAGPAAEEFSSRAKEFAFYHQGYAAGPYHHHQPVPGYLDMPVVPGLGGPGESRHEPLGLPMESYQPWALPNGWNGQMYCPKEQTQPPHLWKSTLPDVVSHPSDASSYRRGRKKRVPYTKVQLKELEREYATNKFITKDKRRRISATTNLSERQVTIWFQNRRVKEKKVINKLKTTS
Assay comment: inhibitors of HoxA13-DNA binding, primary screen, biochemical, fluorescence polarization, labeled oligonucleotide (AID 1185)
Condition: 15 min, higher = more signal, called active from +8 up or from −8 down
Recorded metric: z-score

[[record]]
compound = "COCCCNC(=O)[C@@H]1c2ccccc2C(=O)N(CC23CC4CC(CC(C4)C2)C3)[C@H]1c1ccc(CO)cc1"
experimental_target = "Homeobox protein Hox-A13 (Mus musculus) (UniProt Q62424)"
recorded_metric = "z-score"
recorded_result = -4.65

[[record]]
compound = "COc1ccc([Si](C)(C)[C@H]2[C@H](CCO)O[C@@]3(C(=O)N(Cc4ccccc4)c4ccc(N5C(=O)c6cccc7cccc5c67)cc43)[C@@H]2C)cc1"
experimental_target = "Homeobox protein Hox-A13 (Mus musculus) (UniProt Q62424)"
recorded_metric = "z-score"
recorded_result = 0.2

[[record]]
compound = "COc1cc2c(cc1OC)CN(C(=O)[C@@H]1[C@H]3C(=O)O[C@H](c4ccccc4)[C@H](c4ccccc4)N3[C@H](c3ccccc3OCCO)[C@@]13C(=O)Nc1ccccc13)CC2"
experimental_target = "Homeobox protein Hox-A13 (Mus musculus) (UniProt Q62424)"
recorded_metric = "z-score"
recorded_result = 0.829

[[record]]
compound = "C=C(CCCC)/C(=C/C[C@@H](OC(=O)c1ccncc1)c1ccc(CO)o1)c1cnc2ccccc2c1"
experimental_target = "Homeobox protein Hox-A13 (Mus musculus) (UniProt Q62424)"
recorded_metric = "z-score"
recorded_result = -4.65

[[record]]
compound = "COC(=O)[C@@]1(Cc2ccc(OC)cc2)[C@H]2c3cc(C(=O)N(C)C)n(CCc4ccc(OC)c(Br)c4)c3C[C@H]2CN1C(=O)c1ccccc1"
experimental_target = "Homeobox protein Hox-A13 (Mus musculus) (UniProt Q62424)"
recorded_metric = "z-score"
recorded_result = -0.511

[[record]]
compound = "COc1ccc(CCN2C(=O)[C@@]3(c4ccc([N+](=O)[O-])cc4)CC(=O)N(CC45CC6CC(CC(C6)C4)C5)[C@@H]3c3ccc(CO)cc32)cc1"
experimental_target = "Homeobox protein Hox-A13 (Mus musculus) (UniProt Q62424)"
recorded_metric = "z-score"
recorded_result = -2.14

[[record]]
compound = "CO[C@]12C=C(Br)[C@@H](C[C@@H]1c1ccccc1)[C@@]1(CO1)C2=O"
experimental_target = "Homeobox protein Hox-A13 (Mus musculus) (UniProt Q62424)"
recorded_metric = "z-score"
recorded_result = -0.507

[[record]]
compound = "CN1C2C=C(c3ccc(CO)cc3)C(C3C(=O)N(C(N)=O)C(=O)C32)C1c1cccs1 (centres undefined)"
experimental_target = "Homeobox protein Hox-A13 (Mus musculus) (UniProt Q62424)"
recorded_metric = "z-score"
recorded_result = -5.19

[[record]]
compound = "CO[C@H]1O[C@H](CO)[C@@H](OC(=O)Nc2ccc(Oc3ccccc3)cc2)[C@H](OC(=O)Nc2ccccc2-c2ccccc2)[C@H]1OC(=O)Nc1ccccc1-c1ccccc1"
experimental_target = "Homeobox protein Hox-A13 (Mus musculus) (UniProt Q62424)"
recorded_metric = "z-score"
recorded_result = 0.193

[[record]]
compound = "C=C(CCCC)/C(=C/C[C@H](OC(=O)c1ccncc1)c1cccc(OCCO)c1)c1cc(C(=O)OC)ccc1OC"
experimental_target = "Homeobox protein Hox-A13 (Mus musculus) (UniProt Q62424)"
recorded_metric = "z-score"
recorded_result = -4.52

[[record]]
compound = "O=C1O[C@H](c2ccccc2)[C@H](c2ccccc2)N2[C@H]1[C@@H](C(=O)Nc1nc3ccccc3s1)[C@]1(C(=O)Nc3ccc(C#CC4(O)CCCCCC4)cc31)[C@H]2c1ccc(O)cc1"
experimental_target = "Homeobox protein Hox-A13 (Mus musculus) (UniProt Q62424)"
recorded_metric = "z-score"
recorded_result = -1.04

[[record]]
compound = "C=C(C(=O)CC[C@H](OC(=O)c1ccccc1-c1ccccc1C(=O)O)c1ccc(CO)o1)C(C)C"
experimental_target = "Homeobox protein Hox-A13 (Mus musculus) (UniProt Q62424)"
recorded_metric = "z-score"
recorded_result = -6.22

[[record]]
compound = "CC(=O)NCCCC[C@@H]1NC(=O)[C@@H]2C[C@H](C(=O)NCc3ccc(F)cc3)[C@H](c3cccc(OCCO)c3)N2C1=O"
experimental_target = "Homeobox protein Hox-A13 (Mus musculus) (UniProt Q62424)"
recorded_metric = "z-score"
recorded_result = -4.11

[[record]]
compound = "COc1ccc([Si](C)(C)[C@H]2[C@H](CCO)O[C@@]3(C(=O)N(Cc4ccc(N5CCCCC5=O)cc4)c4ccccc43)[C@@H]2C)cc1"
experimental_target = "Homeobox protein Hox-A13 (Mus musculus) (UniProt Q62424)"
recorded_metric = "z-score"
recorded_result = -4.54

